Experiment: qHTS assay to identify small molecule antagonists of the sonic hedgehog signaling (Shh) pathway (AID 1259369); note: nearly all actives have a fitted effect of over 45% in size
Conditions: NIH/3T3 Gli1-Luc reporter, Shh antagonist, luminescence 24 h; series mostly up to 92.4 µM
From the text: U.S. Tox21 Program National Center for Advancing Translational Sciences [NCATS] NIH Chemical Genomics Center [NCGC] U.S. Environmental Protection Agency [EPA] National Institutes of Environmental Health Sciences [NIEHS] National Toxicology Program [NTP] U.S. Food and Drug Administration [FDA] Tox21 Assay Overview: The sonic hedgehog (Shh) pathway is essential for normal embryonic development. Dysregulation of the Shh pathway can cause severe developmental defects in organs. […]
Inconclusive results are not listed. Calls of active or inactive are those of the source. Calls come from the whole dose curve.
Outcome codes: yes (1) = active, no (0) = inactive

| molecule | group.label |
| --- | --- |
| CN1CCN(N)CC1 | no (0) |
| C=O | no (0) |
| CC1CN(c2ccccc2)NC1=O (configuration not stated) | no (0) |
| CN(CCCN1c2ccccc2CCc2ccccc21)CC(=O)c1ccc(Cl)cc1 | yes (1) |
| CC(C)(C)c1ccc(OC(=O)c2ccccc2O)cc1 | no (0) |
| CCCCCCC | no (0) |
| CC(C)(C)C1CCCCC1=O (configuration not stated) | no (0) |
| CCCCC(CC)COC(=O)COc1cc(Cl)c(Cl)cc1Cl (configuration not stated) | no (0) |
| CC(C)NCC(O)COc1ccc(CCOCC2CC2)cc1 (configuration not stated) | no (0) |
| CO[C@@]1(NC(=O)CSCC#N)C(=O)N2C(C(=O)O)=C(CSc3nnnn3C)CS[C@@H]21 | no (0) |
| CCc1nnc(NS(=O)(=O)c2ccc(N)cc2)s1 | no (0) |
| CCN(CC)C(=O)N(CC)CC | no (0) |
| CC1=C(O)C(=O)OC1C (configuration not stated) | no (0) |
| COc1ccccc1OCC(O)COC(N)=O (configuration not stated) | no (0) |
| CCCCCCCCCC#N | yes (1) |
| CCOc1ccccc1N | no (0) |
| C=CCc1cc(OC)c(O)c(C(=O)NCCO)c1 | no (0) |
| Cc1ccccc1C(=O)Nc1ccc(C(=O)N2CCCC(O)c3cc(Cl)ccc32)c(C)c1 (configuration not stated) | no (0) |
| NS(=O)(=O)c1cc(-c2nn[nH]n2)c(NCc2cccs2)cc1Cl | no (0) |
| CCOC(=O)C1CC(=O)C(=C(O)C2CC2)C(=O)C1 (configuration not stated) | no (0) |
| CC(=O)OC(C)OC(C)=O | no (0) |
| Nc1ccc(Oc2ccc(N)c(N)c2)cc1 | no (0) |
